Ref: patent CN114907476A

Molecular target: T1, SPH-B011-A-Antigen-his蛋白 (人TIGIT) (human, UniProt Q495A1 22-141, limits assumed)
T1 construct: Analyte of the Biacore assay; also called 抗原(人TIGIT); not shown: his tag
T1 sequence (looked up): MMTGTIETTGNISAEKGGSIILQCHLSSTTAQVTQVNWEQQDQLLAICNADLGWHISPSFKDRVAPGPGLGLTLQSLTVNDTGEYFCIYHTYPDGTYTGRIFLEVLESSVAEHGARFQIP
Test: Biacore, antibody captured on anti-Fc CM5 chip, human TIGIT-his 100nM as analyte, 25℃
recorded metric: kon
Form entry: enter the amount, then its unit.

Example binders with recorded kon:
binder	result value
人源化抗TIGIT抗体A4 (antibody, human IgG1, kappa, V domains shown, Humanized) VH: QLQLVQSGAEVKKPGASVKVSCKASGYSFTDYNMNWVRQAPGQSLEWIGVINPNHGTISYNQKFKGRVTMTRDQSTSTAYMELNSLRSEDTAVYYCANNWDVWYFDVWGQGTLVTVSS VL: DIQMTQSPSSLSASVGDRVTITCRPSENIYSYLAWYQQKPGNSPKLLVYNAKALAEGVPSRFSGSGSGTQFTLTISSLQPEDFATYYCQHHFGAPWTFGGGTKVEIKR	529000 M⁻¹ s⁻¹
人源化抗TIGIT抗体A2 (antibody, human IgG1, kappa, V domains shown, Humanized) VH: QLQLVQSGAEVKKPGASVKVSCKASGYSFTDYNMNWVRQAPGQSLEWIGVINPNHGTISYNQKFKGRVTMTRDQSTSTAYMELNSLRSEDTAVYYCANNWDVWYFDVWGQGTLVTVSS VL: DIQMTQSPSSLSASVGDRVTITCRPSENIYSYLAWYQQKPGKAPKLLVYNAKALAEGVPSRFSGSGSGTDFTLTISSLQPEDFATYYCQHHFGAPWTFGQGTKVEIKR	560000 M⁻¹ s⁻¹
人源化抗TIGIT抗体A1 (antibody, human IgG1, kappa, V domains shown, Humanized) VH: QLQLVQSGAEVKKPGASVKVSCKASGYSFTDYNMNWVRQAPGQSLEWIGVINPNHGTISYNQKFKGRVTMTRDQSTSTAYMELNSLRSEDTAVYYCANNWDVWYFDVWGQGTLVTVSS VL: DIQMTQSPSSLSASVGDRVTITCRPSENIYSYLAWYQQKPGKAPKLLIYNAKALAEGVPSRFSGSGSGTDFTLTISSLQPEDFATYYCQHHFGAPWTFGQGTKVEIKR	544000 M⁻¹ s⁻¹

Kindly consider the entry below.
Give kon for the following binder: 人源化抗TIGIT抗体A3 (antibody, human IgG1, kappa, V domains shown, Humanized) VH: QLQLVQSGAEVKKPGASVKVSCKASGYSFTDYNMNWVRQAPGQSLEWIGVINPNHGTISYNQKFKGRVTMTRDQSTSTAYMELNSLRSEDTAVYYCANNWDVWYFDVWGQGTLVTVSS VL: DIQMTQSPSSLSASVGDRVTITCRPSENIYSYLAWYQQKPGNAPKLLVYNAKALAEGVPSRFSGSGSGTQFTLTISSLQPEDFATYYCQHHFGAPWTFGQGTKVEIKR
483000 M⁻¹ s⁻¹
